assay_target: SARS-CoV-2 Mac1 (Severe acute respiratory syndrome coronavirus 2, UniProt P0DTD1)
method_notes: biochemical
measurement_context: 100 µM; inhibitor
Structures can show the parent of a compound that is named as a salt.
outcome_measure: %inhibition (%)

>>> quantitative_readout("C[C@@H]1C[C@H]2[C@@H]3CCC4=CC(=O)C=C[C@]4(C)[C@@]3(F)[C@@H](O)C[C@]2(C)[C@@]1(O)C(=O)CO")
0
>>> quantitative_readout("COc1ccc(C[C@@H](C)NC[C@H](O)c2ccc(O)c(NC=O)c2)cc1 [Arformoterol Tartrate]")
8.751
>>> quantitative_readout("NCCc1c[nH]cn1 [Histamine Phosphate]")
0
>>> quantitative_readout("CCN1CC(CCN2CCOCC2)C(c2ccccc2)(c2ccccc2)C1=O (centres unmarked) [Doxapram]")
4.735
>>> quantitative_readout("O=C1CN(/N=C/c2ccc(-c3ccc([N+](=O)[O-])cc3)o2)C(=O)N1 [Dantrolene sodium hemiheptahydrate]")
2.991
>>> quantitative_readout("O=C(O)/C=C/c1ccc(Cn2ccnc2)cc1 [Ozagrel]")
4.368
>>> quantitative_readout("O=C(O)Cc1ccccc1Nc1c(Cl)cccc1Cl [Diclofenac Sodium]")
15.35
>>> quantitative_readout("C=C1[C@H](CO)[C@@H](O)C[C@@H]1n1cnc2c(=O)[nH]c(N)nc21 [Entecavir Hydrate]")
11.65

---

assay_target: SARS-CoV-2 Mac1 (Severe acute respiratory syndrome coronavirus 2, UniProt P0DTD1)
method_notes: biochemical
measurement_context: read-out: %inhibition
Structures can show the parent of a compound that is named as a salt.
# inhibition at 100 µM per entry
outcome_measure: inhibition at 100 µM (%)

>>> quantitative_readout("C#CCN(C)Cc1ccccc1 [Pargyline hydrochloride]")
0
>>> quantitative_readout("OCCN1CCN(CC/C=C2/c3ccccc3Sc3ccc(C(F)(F)F)cc32)CC1 [Flupenthixol dihydrochloride]")
12.3
>>> quantitative_readout("CC(C)C[C@H](NC(=O)[C@H](Cc1ccccc1)NC(=O)c1cnccn1)B(O)O [Bortezomib (PS-341)]")
54.2
>>> quantitative_readout("Nc1nc2c(ncn2COCCO)c(=O)[nH]1 [Aciclovir]")
19.8
>>> quantitative_readout("CCN1CCN(Cc2ccc(Nc3ncc(F)c(-c4cc(F)c5nc(C)n(C(C)C)c5c4)n3)nc2)CC1 [Abemaciclib]")
4.16
>>> quantitative_readout("CC[C@@H]1C(=O)OC[C@@H]1Cc1cncn1C [Pilocarpine HCl]")
0
>>> quantitative_readout("NS(=O)(=O)c1cc2c(cc1Cl)N=CNS2(=O)=O [Chlorothiazide]")
0
>>> quantitative_readout("CO[C@@]12[C@H](COC(N)=O)C3=C(C(=O)C(C)=C(N)C3=O)N1C[C@@H]1N[C@@H]12 [Mitomycin C]")
10.1
>>> quantitative_readout("OC1(c2ccc(Cl)c(C(F)(F)F)c2)CCN(CCCC(c2ccc(F)cc2)c2ccc(F)cc2)CC1 [Penfluridol]")
5.86
>>> quantitative_readout("C/C=C(\\C)C(=O)O[C@H]1[C@H](OC(C)=O)[C@@]2(CO)C(CC1(C)C)C1=CCC3[C@@]4(C)CCC(O[C@@H]5O[C@H](C(=O)O)[C@@H](O[C@@H]6O[C@H](CO)[C@@H](O)[C@H](O)[C@H]6O)[C@H](O)[C@H]5O[C@@H]5O[C@H](CO)[C@@H](O)[C@H](O)[C@H]5O)[C@](C)(CO)C4CC[C@@]3(C)[C@]1(C)C[C@H]2O (stereo partly drawn) [Escin]")
6.9
>>> quantitative_readout("COc1ccc(-n2nc(C(N)=O)c3c2C(=O)N(c2ccc(N4CCCCC4=O)cc2)CC3)cc1 [Apixaban]")
0
>>> quantitative_readout("CO[C@@H]1[C@H](OC(=O)/C=C/C=C/C=C/C=C/C(=O)O)CC[C@]2(CO2)[C@H]1[C@@]1(C)O[C@@H]1CC=C(C)C [Fumagillin]")
23.6
>>> quantitative_readout("C[n+]1ccccc1C=NO [Pralidoxime Iodide]")
22.4
>>> quantitative_readout("O=C1CCCC(=O)C1C(=O)c1ccc(C(F)(F)F)cc1[N+](=O)[O-] [Nitisinone]")
2.19
>>> quantitative_readout("O=C(CCCCCCC(=O)Nc1ccccc1)NO [Vorinostat (SAHA, MK0683)]")
0
>>> quantitative_readout("Clc1ccc2nsnc2c1NC1=NCCN1 [Tizanidine HCl]")
0
>>> quantitative_readout("CC(C(=O)O)c1ccc(-c2ccccc2)c(F)c1 (stereo not drawn) [Flurbiprofen]")
2.76
>>> quantitative_readout("COC(=O)C1=C(C)NC(C)=C(C(=O)OC(C)C)C1c1cccc2nonc12 (stereo not drawn) [Isradipine]")
0
>>> quantitative_readout("CCCCCCC(=O)O[C@H]1CC[C@H]2[C@@H]3CCC4=CC(=O)CC[C@]4(C)[C@H]3CC[C@]12C [Testosterone Enanthate]")
0
>>> quantitative_readout("COc1cc(C(=O)O)ccc1NC(=O)[C@@H]1N[C@@H](CC(C)(C)C)[C@](C#N)(c2ccc(Cl)cc2F)[C@H]1c1cccc(Cl)c1F [Idasanutlin (RG-7388)]")
0
>>> quantitative_readout("CCCc1nc(C(C)(C)O)c(C(=O)O)n1Cc1ccc(-c2ccccc2-c2nnn[nH]2)cc1 [Olmesartan]")
0
>>> quantitative_readout("Cc1ncc([N+](=O)[O-])n1CCO [Metronidazole]")
16.9
>>> quantitative_readout("Cc1cc(C#N)cc(C)c1Oc1nc(Nc2ccc(C#N)cc2)nc(N)c1Br [Etravirine (TMC125)]")
5.29
>>> quantitative_readout("NS(=O)(=O)NCCNc1nonc1/C(=N/O)Nc1ccc(F)c(Br)c1 [Epacadostat (INCB024360)]")
14.8
>>> quantitative_readout("Nc1ccc2cc3ccc(N)cc3nc2c1 [Proflavine Hemisulfate]")
0
>>> quantitative_readout("COc1cc2c(cc1Cc1cccc(Cl)c1F)c(=O)c(C(=O)O)cn2[C@H](CO)C(C)C [Elvitegravir (GS-9137, JTK-303)]")
0
>>> quantitative_readout("CCC1(c2c[nH]cn2)Cc2ccccc2C1 [Atipamezole hydrochloride]")
0
>>> quantitative_readout("CC[C@H]1OC(=O)[C@H](C)[C@@H](O[C@H]2C[C@@](C)(OC)[C@@H](O)[C@H](C)O2)[C@H](C)[C@@H](O[C@@H]2O[C@H](C)C[C@H](N(C)C)[C@H]2O)[C@](C)(O)C[C@@H](C)/C(=N\\OCOCCOC)[C@H](C)[C@@H](O)[C@]1(C)O [Roxithromycin]")
0.445
>>> quantitative_readout("OB1OCc2cc(F)ccc21 [Tavaborole (AN-2690)]")
0.84
>>> quantitative_readout("N[C@@H](Cc1ccc(N(CCCl)CCCl)cc1)C(=O)O [Melphalan]")
3.44

---

assay_target: SARS-CoV-2 Mac1 (Severe acute respiratory syndrome coronavirus 2, UniProt P0DTD1)
method_notes: biochemical
measurement_context: read-out: %inhibition
// label = Y if inhibition at 100 µM is not less than 1%, otherwise N

>>> class("O=C1OC2(c3ccc(O)cc3Oc3cc(O)ccc32)c2ccccc21")
"Y"
>>> class("CC(=O)NC1CCSC1=O (stereo not shown)")
"N"
>>> class("COC(=O)N[C@@H](C)CNc1nccc(-c2cn(C(C)C)nc2-c2cc(Cl)cc(NS(C)(=O)=O)c2F)n1")
"Y"
>>> class("Oc1cc(Cl)ccc1Oc1ccc(Cl)cc1Cl")
"N"
>>> class("CO[C@H]1C[C@@H]2CC[C@@H](C)[C@@](O)(O2)C(=O)C(=O)N2CCCC[C@H]2C(=O)O[C@H]([C@H](C)C[C@@H]2CC[C@@H](OCCO)[C@H](OC)C2)CC(=O)[C@H](C)/C=C(\\C)[C@@H](O)[C@@H](OC)C(=O)[C@H](C)C[C@H](C)/C=C/C=C/C=C/1C [Everolimus (RAD001)]")
"Y"
>>> class("N[C@@H](CSCCCO)C(=O)O")
"N"
>>> class("CC1=C(/C=C/C(C)=C/C=C/C(C)=C/CO)C(C)(C)CCC1")
"Y"
>>> class("CO[C@@]1(NC(=O)CSCC#N)C(=O)N2C(C(=O)O)=C(CSc3nnnn3C)CS[C@@H]21 [Cefmetazole sodium]")
"Y"
>>> class("CN(C)C(=O)c1cc2cnc(Nc3ccc(N4CCNCC4)cn3)nc2n1C1CCCC1")
"N"
>>> class("CNC1CCCN(c2c(F)cc3c(=O)c(C(=O)O)cn(C4CC4)c3c2OC)C1 (stereo not shown)")
"N"
>>> class("C[C@H]1[C@H](NC(=O)/C(=N\\OC(C)(C)C(=O)O)c2csc(N)n2)C(=O)N1S(=O)(=O)O")
"Y"
>>> class("Cc1cccc(CN2CCN(C(c3ccccc3)c3ccc(Cl)cc3)CC2)c1 (stereo not shown) [Meclizine 2HCl]")
"Y"
>>> class("CC[C@H]1[C@@H]2C[C@H]3[C@@H]4N(C)c5ccccc5[C@]45C[C@@H]([C@H]2[C@H]5O)N3[C@@H]1O")
"Y"
>>> class("CN(C)CCc1c[nH]c2ccc(Cn3cncn3)cc12 [Rizatriptan Benzoate]")
"N"
>>> class("CCc1ccc(Cc2ccc3c(c2)[C@]2(OC3)O[C@H](CO)[C@@H](O)[C@H](O)[C@H]2O)cc1")
"Y"
>>> class("CCCCCCCCC(=O)NCc1ccc(O)c(OC)c1 [Nonivamide]")
"Y"
